assayed-system: μOR (Homo sapiens, UniProt P35372)
Sequence (P35372 whole entry): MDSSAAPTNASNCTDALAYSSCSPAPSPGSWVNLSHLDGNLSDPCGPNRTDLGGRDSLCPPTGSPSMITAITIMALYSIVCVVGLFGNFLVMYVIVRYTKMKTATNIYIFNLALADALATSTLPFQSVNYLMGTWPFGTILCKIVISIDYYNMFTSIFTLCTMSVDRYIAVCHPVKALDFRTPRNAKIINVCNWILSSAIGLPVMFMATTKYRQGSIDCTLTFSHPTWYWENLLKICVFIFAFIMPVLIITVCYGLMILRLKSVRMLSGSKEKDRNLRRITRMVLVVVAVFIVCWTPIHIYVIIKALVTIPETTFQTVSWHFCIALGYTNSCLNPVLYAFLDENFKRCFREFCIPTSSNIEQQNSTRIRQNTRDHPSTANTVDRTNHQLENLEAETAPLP
experiment-notes: β-arrestin recruitment at μOR without GRK2
Format: cell-based
Criterion: Arrestin Emax % DAMGO meeting or surpassing 10 % DAMGO. Met: true. Not met: false.

Solved entries (count: 3):
# molecule, category-label
rows = [
    ("CN(C)[C@H](CNC(=O)NC(C)(C)Cc1ccsc1)Cc1ccc(O)cc1 [DD 32L]", "false"),
    ("C[C@@H](Cc1ccsc1)NC(=O)NC[C@H](Cc1ccc(O)c(CO)c1)N(C)C [DD131]", "true"),
    ("C[C@@H](Cc1csc2ccccc12)NC(=O)NC[C@H](Cc1ccc(O)cc1)N(C)C [DD63L-B]", "true"),
]

# bool: Arrestin Emax % DAMGO of C[C@@H](NC(=O)[C@@H](N)Cc1ccc(O)cc1)C(=O)NCC(=O)N(C)[C@@H](Cc1ccccc1)C(=O)NCCO [DAMGO, reference compound] >= 10 % DAMGO
true

One more molecule: C[C@H](NC(=O)NC[C@H](Cc1ccc(O)cc1)N(C)C)c1ccccc1 [DD 53LS]
false

Would you mind doing CN(C)[C@H](CNC(=O)NCCc1ccccc1)Cc1ccc(O)cc1 [DD90] as well?
false

Next record, please: CN(C)[C@H](CNC(=O)NCCc1ccsc1)Cc1ccc(O)cc1 [DD 16]
false

Try the molecule CN(C[C@H](Cc1ccc(O)cc1)N(C)C)C(=O)NCCc1ccccc1 [DD108]
true

Follow-up item: C[C@@H](Cc1ccsc1)NC(=O)NC[C@H](Cc1cccc(O)c1)N(C)C [DD 47LS]
true

###

assayed-system: κOR (Homo sapiens, UniProt P41145)
Construct: NIMH Psychoactive Drug Screening Program (PDSP)
experiment-notes: Radioligand binding at κOR (PDSP)
recorded-conditions: analogs, full dose-response; read-out: κOR Ki
measured-quantity: pKi
Notebook: values listed as pKi are -log10 of the concentration (mol/L).

Item CC(C)[C@H](CNC(=O)c1ccc([N+](=O)[O-])s1)N1CCc2ccccc2C1 [compound 8] has what recorded pKi?
6.34

###

assayed-system: hKOR (Homo sapiens)
Sequence (P41145 whole entry): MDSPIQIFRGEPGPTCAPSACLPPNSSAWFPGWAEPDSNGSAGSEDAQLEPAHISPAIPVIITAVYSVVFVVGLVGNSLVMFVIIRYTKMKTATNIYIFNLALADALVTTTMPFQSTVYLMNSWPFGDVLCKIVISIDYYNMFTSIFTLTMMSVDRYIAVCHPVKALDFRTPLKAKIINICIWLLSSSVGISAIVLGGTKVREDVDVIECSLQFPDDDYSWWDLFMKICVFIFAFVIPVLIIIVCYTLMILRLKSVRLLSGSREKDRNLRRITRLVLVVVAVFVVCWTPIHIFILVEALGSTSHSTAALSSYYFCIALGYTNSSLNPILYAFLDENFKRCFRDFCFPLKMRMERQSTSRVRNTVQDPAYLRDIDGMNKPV
experiment-notes: Receptor binding with [3H]diprenorphine at hKOR
recorded-conditions: PZM analogs; (n) = number of independent experiments; read-out: binding affinity Ki hKOR
pKi: −log10 of the molar value.
Rule: pKi of 6 or more gives MET; anything lower gives NOT MET.

Could you verify whether the entry C[C@H](Cc1ccsc1)NC(=O)NC[C@@H](Cc1ccccc1)N(C)C [drawing 489] shows pKi of no less than 6?
NOT MET

Check CN(C)[C@H](CNC(=O)NC(C)(C)Cc1ccsc1)Cc1cccc(O)c1 [drawing 532] too.
MET

###

assayed-system: μOR (Homo sapiens, UniProt P35372)
experiment-notes: β-arrestin recruitment at μOR without GRK2
Type: cell-based
recorded-conditions: read-out: Arrestin EC50
pEC50: −log10 of the molar value.
Hi, to clarify the labels: t covers pEC50 from 6 upward, f covers anything below 6.

Worked set:
# molecule, category-label
measured = [
    ("CN(CCc1ccccc1)C(=O)NC[C@H](Cc1ccc(O)cc1)N(C)C [DD102]", "f"),
    ("C[C@@H](Cc1ccsc1)NC(=O)NC[C@H](Cc1cccc(O)c1)N(C)C [DD 47LS]", "t"),
    ("CN(C)[C@H](CNC(=O)NC(C)(C)Cc1ccsc1)Cc1ccc(O)cc1 [DD 32L]", "t"),
    ("C[C@H](NC(=O)NC[C@H](Cc1ccc(O)cc1)N(C)C)c1ccccc1 [DD 53LS]", "t"),
]

API: above_or_equal(metric=pEC50, cutoff=6) for item CN(C[C@H](Cc1ccc(O)cc1)N(C)C)C(=O)NCCc1ccccc1 [DD108]
f

Do the same for C[C@@H](Cc1ccsc1)NC(=O)NC[C@H](Cc1ccc(O)c(CO)c1)N(C)C [DD131] please
t

Entry to check: C[C@@H](Cc1ccccc1)NC(=O)NC[C@H](Cc1ccc(O)cc1)N(C)C [DD 61L-B]
t

CN(C)[C@H](CNC(=S)NCCc1ccsc1)Cc1ccc(O)cc1 [DD81] , same question.
t

Then C[C@@H](Cc1csc2ccccc12)NC(=O)NC[C@H](Cc1ccc(O)cc1)N(C)C [DD63L-B] ?
t

Also CN(C)[C@H](CNC(=O)NCCc1ccccc1)Cc1ccc(O)cc1 [DD90] , if possible.
t

Values were extracted from patent US20200109126A1.
